Assay: Toxicity liver stage against HepG2, at 10uM
Type: cell-based
Parameters: test concentration 10 uM, cell line HepG2-A16-CD81EGFP
Settings: human, HepG2-A16-CD81EGFP cells; read-out: INHIBITION
property.measured: cytotoxicity at 10 µM (%)
Numbers only here, please. The scale is %.

Solved entries (count: 2):
{"molecule": "O=C(c1ccco1)N1CCCC2(CCN(CCN3CCCC3)C2=O)C1 (stereo unspecified)", "property.measured": "cytotoxicity at 10 µM", "result.unit": "%", "value.measured": -4.73}
{"molecule": "Cn1cc(CN2CCC[C@]3(C[C@H](Oc4ccccn4)CO3)C2)cn1", "property.measured": "cytotoxicity at 10 µM", "result.unit": "%", "value.measured": 5.44}

Now for a further molecule.
// recorded cytotoxicity at 10 µM for CN(CC(=O)NCC(F)(F)F)Cc1nc2c(s1)CCCC2 : 19

* * *

Experiment: Toxicity liver stage against HepG2, at 10uM
Format: cell-based
Parameters: test concentration 10 uM, cell line HepG2-A16-CD81EGFP
Settings: human, HepG2-A16-CD81EGFP cells; read-out: INHIBITION
property.measured: cytotoxicity at 10 µM (%)
Note: unit % is implicit; provide only the numeric part.

Lab book: cytotoxicity at 10 µM of Cc1ccc(C(=O)N2CCC3(CCCN(c4ncc(F)cn4)C3)C2)cn1 (stereo not given) noted as -106

* * *

Test: Toxicity liver stage against HepG2, at 10uM
Assay type: cell-based
Design: test concentration 10 uM, cell line HepG2-A16-CD81EGFP
Conditions: human, HepG2-A16-CD81EGFP cells; read-out: INHIBITION
Some molecules, each annotated with its measured cytotoxicity at 10 µM.
Please state the figure in %; there is no need to write the unit.

# count of solved cases: 5
{"molecule": "CC(C)n1ccnc1C1CCN(C(=O)c2cc[nH]n2)CC1", "property.measured": "cytotoxicity at 10 µM", "value.measured": -3.28}
{"molecule": "Cc1cc(C(O)CCNC(=O)COc2ccccc2C)c(C)o1 (centres undefined)", "property.measured": "cytotoxicity at 10 µM", "value.measured": 2.86}
{"molecule": "Cc1ccccc1N(CC(=O)NCCc1nnc2n1CCC2)S(C)(=O)=O", "property.measured": "cytotoxicity at 10 µM", "value.measured": -0.69}
{"molecule": "CCc1cc(CN2C[C@@H]3CC[C@H]2CN(C2Cc4ccccc4C2)C3)on1", "property.measured": "cytotoxicity at 10 µM", "value.measured": 0.998}
{"molecule": "NC(=O)CN(CC(N)=O)Cc1cccc(Oc2ccccc2)c1", "property.measured": "cytotoxicity at 10 µM", "value.measured": -5.05}

cytotoxicity at 10 µM reported for this molecule CN1CCN(C(=O)c2cn3ccsc3n2)[C@H]2CS(=O)(=O)C[C@H]21 : -1.27

For reference, reported cytotoxicity at 10 µM for Cc1nc(C(C)(C)C)sc1C(=O)NCCNc1ncccn1 stands at -4.83

Measured cytotoxicity at 10 µM of Cc1cc(C)n(CC2CCCN2C(=O)c2cncnc2C)n1 (centres undefined) : -2.98

The reported cytotoxicity at 10 µM of the molecule CN1CCN(C(=O)c2cc(-c3cccs3)cs2)CC1 was 3.51

Note to self: cytotoxicity at 10 µM recorded for O=C(CN(Cc1cccs1)C1CCS(=O)(=O)C1)NCCc1cccs1 (centres undefined) was -11.5

cytotoxicity at 10 µM in this record for COCCN(Cc1nc2c(cnn2C)c(=O)[nH]1)C(C)COC (centres undefined) : -4.6

Record c1nc(N2CCCC2Cn2cncn2)c2ccsc2n1 (centres undefined) . Reported cytotoxicity at 10 µM: 14.1

Noted for N#Cc1c(Cl)nsc1N1CCN(CC2CC2)CC1 : its cytotoxicity at 10 µM reads 28.5

Cc1cc(C2CCC2)nc(N2CCC3(CCCNC3=O)C2)n1 (centres undefined) has a reported cytotoxicity at 10 µM of -3.83

// COc1cccc(S(=O)(=O)Cc2cc(C)on2)c1 : cytotoxicity at 10 µM value = 4.03

Documented cytotoxicity at 10 µM of NC(=O)c1cc2c(nc1Oc1ccc(CN3CCCC3)cc1F)CCC2 : -3.62

Record summary for CCc1nnc2n1CCN(c1nc3ccccc3o1)C2 : reported cytotoxicity at 10 µM = 2.11
